Test: Assessment of solubility: HT solubility in pION buffer, UV spectrophotometry
Conditions: pION system solution buffer, pH 7.4, pH 7.4, aqueous buffer, kinetic from dmso stock, Solubility (pH 7.4), pH 7.4 buffer, 16-19 h incubation, 1.0% DMSO
VALUE_TYPE: solubility

Field: example entries. Status: answers known.
Cc1ccc(OCc2ccc(CNC(C)(C)CO)cc2C)c(-c2csc(N3CCC(C(=O)O)CC3)n2)c1 [Compound 26]	> 63 µg/mL
Cc1ccc(OCc2ccc(CN(C)CC3CCCCC3)cc2C)c(-c2csc(N3CCC(C(=O)O)CC3)n2)c1 [Compound 91]	12 µg/mL

// for each compound in input: emit solubility
1. Cc1cc(C(=O)N2CCCCC2)ccc1COc1ccccc1-c1csc(N2CC3C(C2)C3C(=O)O)n1 (stereo not shown) [Compound 9]
2. Cc1cc(C(=O)N2CCCCC2)ccc1COc1ccc(C#N)cc1-c1csc(N2CCC(C(=O)O)CC2)n1 [Compound 274]

1. > 51 µg/mL
2. > 54 µg/mL

###

Target: Recombinant human soluble guanylate cyclase (sGC), alpha 1 / beta 1 subunits, heme-free (Homo sapiens, UniProt Q02108+Q02153)
Construct: histidine tag (C); made in house; host or cells: Sf9 insect cells (baculovirus coinfection)
Sequence (Q02108 whole entry partner): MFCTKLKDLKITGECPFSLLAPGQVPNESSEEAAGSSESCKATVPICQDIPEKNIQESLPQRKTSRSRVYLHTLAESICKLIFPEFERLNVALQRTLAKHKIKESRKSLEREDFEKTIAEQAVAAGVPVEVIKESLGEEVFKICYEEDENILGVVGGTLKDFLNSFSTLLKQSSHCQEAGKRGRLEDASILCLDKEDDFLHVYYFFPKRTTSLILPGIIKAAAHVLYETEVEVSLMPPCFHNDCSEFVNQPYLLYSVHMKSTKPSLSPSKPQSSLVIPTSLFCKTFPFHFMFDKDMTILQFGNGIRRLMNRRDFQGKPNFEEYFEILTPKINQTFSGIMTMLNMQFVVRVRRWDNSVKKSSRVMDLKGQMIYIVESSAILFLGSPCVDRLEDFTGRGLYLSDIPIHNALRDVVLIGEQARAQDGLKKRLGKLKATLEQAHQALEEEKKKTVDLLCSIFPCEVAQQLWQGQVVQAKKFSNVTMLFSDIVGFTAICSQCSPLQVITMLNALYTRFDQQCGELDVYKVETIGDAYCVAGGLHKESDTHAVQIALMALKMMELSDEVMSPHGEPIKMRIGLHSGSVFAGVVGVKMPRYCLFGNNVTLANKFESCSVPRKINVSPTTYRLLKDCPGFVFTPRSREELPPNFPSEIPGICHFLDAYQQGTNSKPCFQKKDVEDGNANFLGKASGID
Sequence (Q02153 whole entry): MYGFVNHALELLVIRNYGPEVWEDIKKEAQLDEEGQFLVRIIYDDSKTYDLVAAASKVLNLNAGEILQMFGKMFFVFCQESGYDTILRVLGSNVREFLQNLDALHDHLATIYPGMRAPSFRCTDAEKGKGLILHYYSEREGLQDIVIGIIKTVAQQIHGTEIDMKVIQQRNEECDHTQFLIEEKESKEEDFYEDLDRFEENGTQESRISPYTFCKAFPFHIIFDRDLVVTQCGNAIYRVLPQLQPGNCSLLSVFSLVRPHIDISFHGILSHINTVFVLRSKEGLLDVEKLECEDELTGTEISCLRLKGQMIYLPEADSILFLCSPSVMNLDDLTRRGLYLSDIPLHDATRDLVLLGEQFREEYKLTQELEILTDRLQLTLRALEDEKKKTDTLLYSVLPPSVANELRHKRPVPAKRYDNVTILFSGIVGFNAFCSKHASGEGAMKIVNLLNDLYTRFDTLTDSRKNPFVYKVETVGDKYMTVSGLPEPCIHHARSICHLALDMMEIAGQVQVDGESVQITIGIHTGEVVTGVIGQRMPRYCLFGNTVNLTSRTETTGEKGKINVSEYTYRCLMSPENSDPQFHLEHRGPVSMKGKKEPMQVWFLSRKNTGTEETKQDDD
Test: Molecular assay: cGMP formation by heme-free recombinant sGC (CisBio cGMP detection kit)
Assay type: biochemical
Settings: 300 pM heme-free sGC, 37° C., 60 min, cGMP readout; read-out: EC50 nM, Activity of Compounds in Molecular Assay
What EC50 was measured for each of the following?
One number for each entry, in nM.

Cc1ccc(OCc2ccc(C(=O)N(C)CCN(C)C)cc2C)c(-c2csc(N3CCC(C(=O)O)CC3)n2)c1	2800
Cc1cc(C(=O)N2CCCCC2)ccc1COc1ccccc1-c1csc(N2CC3C(C2)C3C(=O)O)n1 (centres unmarked)	680
N#Cc1cc(CN2CCOCC2)ccc1COc1c(Cl)cccc1-c1csc(N2CCC(C(=O)O)CC2)n1	70
Cc1cc(CN2CCS(=O)(=O)CC2)ccc1COc1ccc(C#N)cc1-c1csc(N2CCC(C(=O)O)CC2)n1	320
Cc1ccc(OCc2ccc(CN3CCOCC3)cc2C)c(-c2csc(N3C[C@H]4C[C@@H](C3)[C@H]4C(=O)O)n2)c1	240
Cc1cc(C(=O)N2CCCCC2)ccc1COc1c(C)cccc1-c1csc(N2C[C@H]3CC[C@@H](C2)[C@H]3C(=O)O)n1	250

// for each compound in input: emit EC50
1. Cc1cc(CN2CCCC(C(N)=O)C2)ccc1COc1c(C)cccc1-c1csc(N2CCC(C(=O)O)CC2)n1 (centres unmarked)
2. Cc1cc(C(=O)N2CCCCC2)ccc1COc1ccccc1-c1csc(N2CCC(C(=O)O)CC2C)n1 (centres unmarked)

1: 770; 2: 70

###

Biological target: human soluble guanylate cyclase alpha 1 and beta 1 subunits (sGC) stably expressed in Chinese hamster ovary cells (Homo sapiens, UniProt Q02108+Q02153)
Construct: expressed in transfected cells; host or cells: Chinese hamster ovary cells, stably transfected
Sequence (Q02108 whole entry partner): as the sequence (Q02108 whole entry partner) above
Sequence (Q02153 whole entry): as the sequence (Q02153 whole entry) above
Experiment: sGC cellular activator assay: cGMP in CHO cells expressing human sGC, preincubated with ODQ
Assay type: cell-based
Settings: 40 microM ODQ preincubation, 30 min at room temperature, presence or absence of 50% human serum not given, read-out: EC50 nM, Activity of Compounds in Cellular Assay
VALUE_TYPE: EC50 (nM)
One number for each entry, in nM.

Field: example entries. Status: answers known.
Cc1ccc(OCc2ccc(C(=O)N3CC(F)(F)C3)cc2C)c(-c2csc(N3C[C@H]4CC[C@@H](C3)[C@H]4C(=O)O)n2)c1 [Compound 360]	21
Cc1ccc(OCc2ccc(C(=O)N3CCN(C)C(=O)C3)cc2C)c(-c2csc(N3CCC(C(=O)O)CC3)n2)c1 [Compound 349]	40
Cc1ccc(OCc2ccc(CN3CCOCC3)cc2C)c(-c2csc(N3C[C@@H]4[C@H](C3)[C@@H]4C(=O)O)n2)c1 [Compound 246]	340
Cc1ccc(OCc2ccc(CN3CCS(=O)(=O)CC3)cc2C)c(-c2csc(N3CC4(CC4C(=O)O)C3)n2)c1 (stereo not shown) [Compound 252]	260
Cc1cc(C(=O)N2CCCCC2)ccc1COc1c(C)cccc1-c1csc(N2C[C@H]3CC[C@@H](C2)[C@H]3C(=O)O)n1 [Compound 208]	39
Cc1ccc(OCc2c(C)cc(C(=O)N3CCOCC3)cc2C)c(-c2csc(N3C[C@H]4CC[C@@H](C3)[C@H]4C(=O)O)n2)c1 [Compound 285]	120

Let us examine a further case.
Recorded EC50 for Cc1ccc(OCc2ccc(CN3CCS(=O)(=O)CC3)cc2C)c(-c2csc(N3CCC(C(=O)O)C(C)C3)n2)c1 (stereo not shown) [Compound 204] , please?
17
